# TGI per entry
- System: OVCAR-5 ovarian
- assayName: NCI tumour cell line growth inhibition, 48 h

# compound, tgt, TGI
data = [
    ("Nc1c(C(=O)O)nnc2cc(Cl)c(Cl)cc12", "OVCAR-5 ovarian", "> 100 µM"),
    ("CCN1C/C(=C\\c2cc(OC)c(OC)cc2OC)C(=O)/C(=C/c2cc(OC)c(OC)cc2OC)C1", "OVCAR-5 ovarian", "> 100 µM"),
    ("COc1ccc2nc3c(C(=O)NCCN(C)C)cccc3cc2c1", "OVCAR-5 ovarian", "5.9 µM"),
    ("Cc1cc(O)c(=O)cc2c1C[C@H]1CC(C)(C)/C=C/C[C@]3(C)Oc4cc(=O)c(O)cc(C)c4C[C@H]3C[C@H](O)[C@@]1(C)O2", "OVCAR-5 ovarian", "> 100 µM"),
    ("CCCCCCCCCCCCOC1C(CNC(=O)C2OC3OC(C)(C)OC3C2NC(=O)Nc2ccc(CC(=O)OC)cc2)OC2OC(C)(C)OC21 (stereo not drawn)", "OVCAR-5 ovarian", "> 100 µM"),
    ("CCSCC1CC(O)(c2ccccc2)CC(c2ccc(F)cc2)O1 (stereo not drawn)", "OVCAR-5 ovarian", "5.09 µM"),
    ("O=C(O)CN1C=C(C(=O)c2cc3ccccc3n2S(=O)(=O)c2ccccc2)CCC1", "OVCAR-5 ovarian", "> 100 µM"),
    ("CC(C)=CCC[C@]1(C)C=Cc2c(O)c3c(c(CC=C(C)C)c2O1)O[C@]12C(=C[C@@H]4CC1C(C)(C)O[C@@]2(C/C=C(/C)C(=O)O)C4=O)C3=O", "OVCAR-5 ovarian", "2.94 µM"),
]

====

- Tested on: UACC-257 melanoma
- assayName: NCI tumour cell line growth inhibition, 48 h
Starred links: 1 amine or outer side, 2 acyl side, 3 side chain; linkers in the order of their positions; H or OH if unused. Positions of bridges follow the written chain, without caps; N, C: chain ends. Non-standard residues stand in square brackets, D forms with d. Residues, ends and D or L forms follow the SMILES beside them. Chains are numbered I, II in the order given. Actinocin(1to9) = Cc1c2oc3c(C)ccc(C(=O)[*:2])c3nc-2c(C(=O)[*:1])c(N)c1=O; NMeV = CN[CH](C(=O)O)C(C)C; Sar = CNCC(=O)O
TGI values, listed per item
property: TGI

# compound, measured
data = [
    ("COc1cc(Nc2nc3cc(N)cc(N)c3nc2-c2ccccc2)cc(OC)c1OC", "> 100 µM"),
    ("O=C1NC(N2CCOCC2)=N/C1=C\\c1ccc(Cl)cc1", "> 100 µM"),
    ("CCc1n[nH]c(=O)n1/N=C/c1ccccc1O", "> 100 µM"),
    ("COc1ccc(C/C(=N/O)C(=O)NCCc2cc(Br)c(OCCCN(C)C)c(Br)c2)cc1Br", "30.6 µM"),
    ("S=c1[nH]nc(CNc2ccc(-c3n[nH]c(=S)n3-c3ccc(Cl)cc3)cc2)n1-c1ccc(Cl)cc1", "> 100 µM"),
    ("c1ccc([P+](CCSCCSCC[P+](c2ccccc2)(c2ccccc2)c2ccccc2)(c2ccccc2)c2ccccc2)cc1", "> 100 µM"),
    ("COc1ccc2c(c1)/C(=C\\c1c(-c3cc(OC)ccc3OC)nc3sc(C)cn13)C(=O)N2C", "45.9 µM"),
    ("COc1ccc2nc3c(C(=O)NCCN(C)C)cccc3cc2c1", "5.01 µM"),
    ("COC(=O)C1CCc2c1c(=O)n1c([nH]c3ccccc31)c2C#N (centres undefined)", "> 100 µM"),
    ("CCN(CCCN(C)C)Cc1cc(I)cc(C)c1O", "32.5 µM"),
    ("O=C(NC1(c2cc3ccccc3s2)CCCCC1)C1CCC1", "> 100 µM"),
    ("O=c1[nH]c(Cc2ccccc2)nc2c1sc1nc3ccccc3n12", "> 100 µM"),
    ("COc1ccc(C(=O)C2=NON3OC23C(=O)c2ccc(OC)cc2)cc1 (centres undefined)", "34.9 µM"),
    ("C=C1C(=O)O[C@H]2C/C(C)=C/CC[C@@]3(C)O[C@](C)(CC[C@@H]3I)[C@@H](I)C[C@@H]12", "12.7 µM"),
    ("CC1=Nc2ccccc2S/C1=C(/C)NNS(=O)(=O)c1ccc(C)cc1", "> 100 µM"),
    ("Cc1cn([C@@H]2C[C@@H]2CO)c(=O)[nH]c1=O", "> 100 µM"),
    ("COCC1CCCN1c1ccc(C=N/C(C#N)=C(\\N)C#N)cc1 (centres undefined)", "> 100 µM"),
    ("Cc1coc2c1C[C@@]1(C)[C@H](CCC[C@@H]1C)[C@H]2O", "88.3 µM"),
    ("CCC(C)C1NC(=O)C(NC(=O)c2c3nc4c(C(=O)NC5C(=O)NC(C(C)CC)C(=O)N6CCCC6C(=O)N(C)CC(=O)N(C)C(C(C)C)C(=O)OC5C)ccc(C)c4oc-3c(C)c(=O)c2N)C(C)OC(=O)C(C(C)C)N(C)C(=O)CN(C)C(=O)C2CCCN2C1=O (centres undefined) (I: TIP[Sar][NMeV] / II: TIP[Sar][NMeV]; ester I:1-I:C, II:1-II:C; linker I:N-II:N via Actinocin(1to9); configuration not given here)", "0.00726 µM"),
    ("O=C1CSC(/C=C/c2ccccc2)N1c1nc2cc3sc(N4C(=O)CSC4/C=C/c4ccccc4)nc3cc2s1 (centres undefined)", "> 100 µM"),
    ("COc1cc(C2Cc3ncccc3-c3[nH]c(=O)c4cccnc4c32)cc(OC)c1OC (centres undefined)", "> 100 µM"),
    ("Cc1ccc(S(=O)(=O)OCCn2cnc3nc(NC(=O)c4ccccc4)[nH]c(=O)c32)cc1", "> 100 µM"),
    ("COc1ccc(C(c2cc(OC)c(OC)c(OC)c2)n2ccnc2)cc1O (centres undefined)", "> 100 µM"),
    ("O=c1oc2ccccc2nc1/C=C(\\O)c1ccc(Cl)cc1", "> 100 µM"),
    ("CC(=O)O[C@H]1C(=O)[C@@]2(C)[C@H]([C@H](OC(=O)c3cccc([N+](=O)[O-])c3)[C@]3(O)C[C@H](OC(=O)[C@H](O)[C@@H](NC(=O)c4ccccc4)c4ccccc4)C(C)=C1C3(C)C)[C@]1(OC(C)=O)CO[C@@H]1C[C@@H]2O", "> 25 µM"),
    ("O=C1C[C@H](c2ccccc2)O[C@@H](c2ccccc2)C1", "> 100 µM"),
    ("CC(=O)O[C@H]1C(=O)[C@@]2(C)C(C(OC(=O)c3ccccc3)[C@]3(O)C[C@H](OC(=O)C(OC(=O)CCCC(=O)NCCCN(C)C)C(NC(=O)c4ccccc4)c4ccccc4)C(C)=C1C3(C)C)C1(OC(C)=O)COC1C[C@@H]2O (some centres undefined)", "33.5 µM"),
    ("Cn1cnc([N+](=O)[O-])c1Sc1nc(N)nc2c1ncn2C1OC(CO)C(O)C1O (centres undefined)", "> 100 µM"),
    ("O=C(c1ccccc1)c1c(CC(O)c2ccccn2)n(C(=O)c2ccccc2)c2ccccc12 (centres undefined)", "43.6 µM"),
    ("CC1=CC(=O)C2=C(C)CCC3C(C)C(=O)OC3C12 (centres undefined)", "> 100 µM"),
    ("Cn1c2c(c3ccccc31)CCN(CCCCN1CCCCC1)C2=O", "> 100 µM"),
    ("O=C(N/C(=C\\c1ccc(Cl)cc1)c1nc2ccccc2[nH]1)c1ccccc1", "46.2 µM"),
    ("CCOc1cc(C2SCC(=O)N2c2ccc(Oc3ccc(Cl)cc3)c(Cl)c2)ccc1O (centres undefined)", "33.3 µM"),
    ("Cc1nc(-n2nc(-c3ccccc3)cc2-c2ccccc2)sc1C(=O)/C=C/c1ccc(/C=C/C(=O)c2sc(-n3nc(-c4ccccc4)cc3-c3ccccc3)nc2C)cc1", "45.6 µM"),
]

====

- System: BT-549 breast
- assayName: NCI tumour cell line growth inhibition, 48 h
Starred links: 1 amine or outer side, 2 acyl side, 3 side chain; linkers in the order of their positions; H or OH if unused. Positions of bridges follow the written chain, without caps; N, C: chain ends. Non-standard residues stand in square brackets, D forms with d. Residues, ends and D or L forms follow the SMILES beside them. Chains are numbered I, II in the order given. Actinocin(1to9) = Cc1c2oc3c(C)ccc(C(=O)[*:2])c3nc-2c(C(=O)[*:1])c(N)c1=O; NMeV = CN[CH](C(=O)O)C(C)C; Sar = CNCC(=O)O

# compound, TGI
measured = [
    ("N#Cc1cc(C#N)c(N)nc1N", "> 100 µM"),
    ("CCC(C)C1NC(=O)C(NC(=O)c2c3nc4c(C(=O)NC5C(=O)NC(C(C)CC)C(=O)N6CCCC6C(=O)N(C)CC(=O)N(C)C(C(C)C)C(=O)OC5C)ccc(C)c4oc-3c(C)c(=O)c2N)C(C)OC(=O)C(C(C)C)N(C)C(=O)CN(C)C(=O)C2CCCN2C1=O (centres undefined) (I: TIP[Sar][NMeV] / II: TIP[Sar][NMeV]; ester I:1-I:C, II:1-II:C; linker I:N-II:N via Actinocin(1to9); configuration not given here)", "0.58 µM"),
    ("O=c1cc(N=Nc2ccc(Br)cc2)[nH]c(=S)[nH]1", "> 100 µM"),
    ("O=c1oc2ccccc2nc1/C=C(\\O)c1ccc(Cl)cc1", "> 100 µM"),
]
